subject.of.test: Human pyruvate kinase R (PKR) (Homo sapiens)
Construct: Human pyruvate kinase R (PKR), residues 14-574; 6x-His (N, cleaved yes); 8x-Arg (N, cleaved yes); SUMO (N, cleaved yes); host or cells: E. coli
assay.name: Biochemical assay for activation of pyruvate kinase R (Kinase-Glo luminescence measurement of ATP generation)
condition.notes: PKR biochemical assay; 0.1 nM PKR, 0.3 mM ADP, 2 mM FBP, 0.1 mM PEP
Experimental: Human pyruvate kinase R (PKR), residues 14-574, and human pyruvate kinase M2, residues 1-531, were cloned into expression plasmids and obtained from ATUM Bio (Newark, Calif.). Proteins were translated as fusions with 6×-His, 8×-Arg, and SUMO at the N-terminus. […] Activation of pyruvate kinase R (PKR) and pyruvate kinase M2 (PKM2) were measured using a luminescence based measurement of ATP generation and the Kinase-Glo luminescent kinase reagent kit.
Field: label. Allowed values: satisfied (AC50 < 200 nM) or not satisfied (AC50 >= 200 nM).

1. CCN(Cc1ncnn1-c1ccc(Cl)c(F)c1)C(=O)NCc1ncnn1CC1CCOCC1 [Compound 8] :: not satisfied
2. O=C(NCc1nnnn1-c1ccc(F)c(F)c1)NCc1nnnn1-c1ccc(F)c(F)c1 [Compound 56] :: not satisfied
3. O=C(NCc1ncnn1-c1ccc(O)nc1)NCc1ncnn1-c1ccc(Cl)c(F)c1 [Compound 119] :: not satisfied
4. CCN(Cc1ncnn1-c1ccc(Cl)c(F)c1)C(=O)NCc1ncnn1-c1ccc(Cl)c(F)c1 [Compound 30] :: satisfied
5. O=C(NCc1ncnn1-c1ccc(Cl)c(F)c1)NCc1ncnn1-c1cnc2cc(F)ccc2c1 [Compound 145] :: satisfied

Request: Dear reviewer, please state whether O=C(NCc1ncnn1-c1ccc(Cl)c(F)c1)NCc1ncnn1-c1nc2cc(Cl)ccc2s1 [Compound 35] has AC50 strictly beneath 200 nM.
Result: not satisfied

Request: Entry COC(=O)c1cc(-n2nc(C)nc2CNC(=O)NCc2nc(C)nn2-c2ccc(Cl)c(F)c2)ccc1Cl [Compound 95] please
Result: satisfied

Request: Entry COc1ccc(-n2ncnc2CNC(=O)NCc2nc(C)nn2-c2ccc(Cl)c(F)c2)nc1 [Compound 130] please
Result: not satisfied

Request: Entry Cc1nc(CNC(=O)NCc2ncnn2-c2ccc3c(c2)OCC3)n(-c2ccc(Cl)c(F)c2)n1 [Compound 24] please
Result: satisfied

====

Can you tell me log10(AC50) for the items I'm about to list?
subject.of.test: Human pyruvate kinase R (PKR) (Homo sapiens, UniProt P30613)
Construct: Human pyruvate kinase R (PKR), residues 14-574; 6x-His (N, cleaved yes); 8x-Arg (N, cleaved yes); SUMO (N, cleaved yes); host or cells: E. coli
Sequence (P30613 14-574): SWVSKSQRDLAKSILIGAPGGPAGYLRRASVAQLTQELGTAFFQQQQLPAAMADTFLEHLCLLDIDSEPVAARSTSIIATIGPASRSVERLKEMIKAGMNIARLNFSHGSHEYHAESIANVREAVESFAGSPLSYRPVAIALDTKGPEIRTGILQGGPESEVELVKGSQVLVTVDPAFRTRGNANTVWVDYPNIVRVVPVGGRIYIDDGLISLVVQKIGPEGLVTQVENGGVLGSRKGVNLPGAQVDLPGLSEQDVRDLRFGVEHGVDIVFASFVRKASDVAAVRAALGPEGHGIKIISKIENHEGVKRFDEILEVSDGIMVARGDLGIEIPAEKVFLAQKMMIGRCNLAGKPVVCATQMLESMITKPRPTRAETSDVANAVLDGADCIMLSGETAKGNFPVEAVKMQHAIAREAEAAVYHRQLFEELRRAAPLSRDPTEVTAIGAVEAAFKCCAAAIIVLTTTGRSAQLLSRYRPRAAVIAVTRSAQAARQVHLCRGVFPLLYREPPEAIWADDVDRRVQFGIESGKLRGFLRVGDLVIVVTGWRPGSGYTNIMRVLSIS
assay.name: Biochemical assay for activation of pyruvate kinase R (Kinase-Glo luminescence measurement of ATP generation)
condition.notes: PKR biochemical assay; 0.1 nM PKR, 0.3 mM ADP, 2 mM FBP, 0.1 mM PEP
Scale: decimal log of AC50, AC50 in nM.

Respectfully, I request log10(AC50) for each entry included below.
1. Cc1nc(CNC(=O)NCc2ncnn2-c2ccc(C3CC3)nc2)n(-c2ccc(Cl)c(F)c2)n1 [Compound 131]
2. Cc1nc(CNC(=O)NCc2ncnn2-c2ccc3c(cnn3C)c2)n(-c2ccc(Cl)c(F)c2)n1 [Compound 51]

Result:
[1.89, 1.82]

Respectfully, I request log10(AC50) for each entry included below.
1. Cc1nc(CNC(=O)NCc2ncnn2-c2cc3ccccc3cn2)n(-c2ccc(Cl)c(F)c2)n1 [Compound 125]
2. Cc1ccc(-n2nnnc2CNC(=O)NCc2nnnn2C2CCCCC2)cc1C [Compound 72]
3. Cc1nc(CNC(=O)NCc2ncnn2-c2cc(F)c3cncnc3c2)n(-c2ccc(Cl)c(F)c2)n1 [Compound 108]
4. Cc1ccc2ccc(-n3ncnc3CNC(=O)NCc3nc(C)nn3-c3ccc(Cl)c(F)c3)cc2n1 [Compound 29]

Result:
1. 3.58
2. 3.26
3. 2.95
4. 2.04

Request: Given the compound O=C(NCc1ncnn1-c1ccc(Cl)cc1)NCc1ncnn1-c1ccc(Cl)cc1 [Compound 61] , what is its reported log10(AC50)?
Result: 1.04

====

subject.of.test: Human pyruvate kinase R (PKR) (Homo sapiens, UniProt P30613)
Construct: Human pyruvate kinase R (PKR), residues 14-574; 6x-His (N, cleaved yes); 8x-Arg (N, cleaved yes); SUMO (N, cleaved yes); host or cells: E. coli
assay.name: Biochemical assay for activation of pyruvate kinase R (Kinase-Glo luminescence measurement of ATP generation)
condition.notes: PKR biochemical assay; 0.1 nM PKR, 0.3 mM ADP, 2 mM FBP, 0.1 mM PEP
Can you tell me AC50 for the items I'm about to list?
Numbers only, in nM.

The examples below pair each entry with its known result.
1) Cc1nc(CNC(=O)NCc2ncnn2-c2ccc3cncnc3c2)n(-c2ccc(Cl)c(F)c2)n1 [Compound 88] :: 70
2) O=C(NCc1ncnn1-c1ccc(Cl)c(F)c1)NCc1ncnn1-c1ccc2cccnc2c1 [Compound 75] :: 33
3) CN(Cc1ncnn1-c1ccc(Cl)c(F)c1)C(=O)NCc1nnnn1-c1ccc(Cl)c(F)c1 [Compound 33] :: 9
4) O=C(NCc1nc(CF)nn1-c1ccc(Cl)c(F)c1)NCc1n[nH]c(=O)n1-c1ccc(Cl)c(F)c1 [Compound 107] :: 30
5) Cc1nc(CNC(=O)NCc2nnnn2-c2ccc(Cl)c(F)c2)n(-c2ccc3cccnc3c2)n1 [Compound 86] :: 66

Respectfully, I request AC50 for each entry included below.
1. CCN(Cc1ncnn1-c1ccc(Cl)c(F)c1)C(=O)NCc1nc(C)nn1-c1cnc2ccccc2c1 [Compound 143]
2. Cc1ccc(-n2ncnc2CNC(=O)NCc2ncnn2-c2ccc(C)nc2)cn1 [Compound 74]
3. O=C(NCc1ncnn1-c1ccc(Cl)c(F)c1)NCc1nnnn1-c1ccc(Cl)c(F)c1 [Compound 31]

Result:
[140, 2800, 14]

====

Can you tell me Emax for the items I'm about to list?
subject.of.test: Human pyruvate kinase R (PKR) (Homo sapiens, UniProt P30613)
Construct: Human pyruvate kinase R (PKR), residues 14-574; 6x-His (N, cleaved yes); 8x-Arg (N, cleaved yes); SUMO (N, cleaved yes); host or cells: E. coli
assay.name: Biochemical assay for activation of pyruvate kinase R (Kinase-Glo luminescence measurement of ATP generation)
condition.notes: maximal activation level relative to the activation level achieved by the literature compound AG-348 @ 10 μM
Description: Human pyruvate kinase R (PKR), residues 14-574, and human pyruvate kinase M2, residues 1-531, were cloned into expression plasmids and obtained from ATUM Bio (Newark, Calif.). Proteins were translated as fusions with 6×-His, 8×-Arg, and SUMO at the N-terminus. […] Activation of pyruvate kinase R (PKR) and pyruvate kinase M2 (PKM2) were measured using a luminescence based measurement of ATP generation and the Kinase-Glo luminescent kinase reagent kit.
Give bare numbers, in %.

The examples below pair each entry with its known result.
1. Cn1ncc2cc(-n3ncnc3CNC(=O)NCc3ncnn3-c3ccc(Cl)c(F)c3)ccc21 [Compound 52] :: 37
2. O=C(NCc1nnnn1-c1ccc(Cl)cc1)NCc1nnnn1-c1ccc(Cl)cc1 [Compound 1] :: 96
3. COc1ccc(-n2nnnc2CNC(=O)NCc2nnnn2-c2ccc(OC)cc2)cc1 [Compound 69] :: 92

Respectfully, I request Emax for each entry included below.
1. Cc1nc(CNC(=O)NCc2ncnn2CC2CCOCC2)n(-c2ccc(Cl)c(F)c2)n1 [Compound 10]
2. COC(=O)c1cc(-n2nc(C)nc2CNC(=O)NCc2nc(C)nn2-c2ccc(Cl)c(F)c2)ccc1Cl [Compound 95]
3. Cc1nc(CNC(=O)NCc2nc(C3CC3)nn2-c2ccc3cccnc3c2)n(-c2ccc(Cl)c(F)c2)n1 [Compound 55]
4. CC1(C)CC(Cn2ncnc2CNC(=O)NCc2ncnn2-c2ccc(Cl)c(F)c2)CCO1 (stereo not shown) [Compound 13]
5. O=C(NCc1ncnn1-c1ccc(Cl)cc1)NCc1ncnn1-c1ccc(Cl)cc1 [Compound 61]

Result:
1. 74
2. 87
3. 90
4. 55
5. 36

Respectfully, I request Emax for each entry included below.
1. CCN(Cc1ncnn1-c1ccc(Cl)c(F)c1)C(=O)NCc1nnnn1-c1ccc(Cl)c(F)c1 [Compound 36]
2. O=C(NCc1ncnn1-c1ccc2cccnc2c1)NCc1nc(CF)nn1-c1ccc(Cl)c(F)c1 [Compound 104]
3. O=C(NCc1ncnn1-c1cc(F)cc(Cl)c1)NCc1ncnn1-c1cc(F)cc(Cl)c1 [Compound 68]
4. Cc1nc(CNC(=O)NCc2ncnn2-c2cnc3ccc(F)cc3c2)n(-c2ccc(Cl)c(F)c2)n1 [Compound 139]
5. Cc1nc(CNC(=O)NCc2nc(C)nn2-c2ccc(Cl)cc2)n(-c2ccc(Cl)cc2)n1 [Compound 73]
6. CCN(Cc1ncnn1-c1ccc(OC)nc1)C(=O)NCc1nc(C)nn1-c1ccc(Cl)c(F)c1 [Compound 124]
7. CCc1nc(CNC(=O)NCc2ncnn2-c2ccc3cccnc3c2)n(-c2ccc(Cl)c(F)c2)n1 [Compound 45]
8. Cc1ccc(-n2ncnc2CNC(=O)NCc2ncnn2-c2ccc(C)c(C)c2)cc1C [Compound 57]

Result:
[95, 80, 65, 96, 107, 79, 80, 87]

Cited source: patent US20230278984A1
